# Test system: Eenterococcus faecalis
# appliedConditions: E, 16 h
Ends that are not written are not given here.
quantityName: MIC, Eenterococcus faecalis (µM)
Answers are plain numbers, in µM.

Worked cases, MIC, Eenterococcus faecalis given:
RAKIFKKIEKVGRNVRDGIIKAGPAVAVVGQAATVVK-NH2 [Papiliocin-2A] ... 128
RAKIFKKIEKVGRNVRDGIIKA-NH2 [PapN-2A] ... 128

Below are 2 substances. Give each one its MIC, Eenterococcus faecalis.
1. RFKIWKKIEKVGRNVRDGIIKA-NH2 [PapN-2F5W]
2. RWKIFKKIEKVGRNVRDGIIKAGPAVAVVGQAATVVK-NH2 [Papiliocin]

64.0
64.0

Provide only the value of recorded MIC, Eenterococcus faecalis for RWKIFKKIEKVGRNVRDGIIKA-NH2 [PapN]
64.0

====

Give GM of the MIC values, gram-positive for every item shown.
# Test system: gram-positive bacteria (B. subtilis, E. faecalis, S. aureus)
# appliedConditions: 16 h
Ends that are not written are not given here.
Answers are plain numbers, in µM.

Provide GM of the MIC values, gram-positive for all items below, preserving their order.
1. RWKIAKKIEKVGRNVRDGIIKAGPAVAVVGQAATVVK-NH2 [Papiliocin-5A]
2. RAKIAKKIEKVGRNVRDGIIKA-NH2 [PapN-2A5A]
3. RWKIFKKIEKVGRNVRDGIIKA-NH2 [PapN]
4. RAKIAKKIEKVGRNVRDGIIKAGPAVAVVGQAATVVK-NH2 [Papiliocin-2A5A]
5. RWKIAKKIEKVGRNVRDGIIKA-NH2 [PapN-5A]
6. RFKIWKKIEKVGRNVRDGIIKA-NH2 [PapN-2F5W]
7. RAKIFKKIEKVGRNVRDGIIKAGPAVAVVGQAATVVK-NH2 [Papiliocin-2A]
8. RWKIFKKIEKVGRNVRDGIIKAGPAVAVVGQAATVVK-NH2 [Papiliocin]

1: 107; 2: 213; 3: 26.7; 4: 213; 5: 53.3; 6: 29.3; 7: 107; 8: 37.3

Quickly give me recorded GM of the MIC values, gram-positive for RAKIFKKIEKVGRNVRDGIIKA-NH2 [PapN-2A]
64.0

====

# System: MDRPA 2095(R)
# appliedConditions: 16 h
# Experimental: We examined the antimicrobial activities of the peptides against multidrug-resistant bacterial strains, including four gram-negative species (S. typhimurium 8009(R), E. coli 1229(R), P. aeruginosa 2095(R), and A. baumannii 12035(R); Table 3). MICs of the peptides against six standard bacteria and four multidrug-resistant bacteria were determined by a broth microdilution assay as described previously. […]
Ends that are not written are not given here.
Would you mind telling me the reported MIC, MDRPA 2095(R) of each entry?
Numbers only, in µM.

Solved cases below.
RAKIAKKIEKVGRNVRDGIIKA-NH2 [PapN-2A5A] ... 16.0
RWKIAKKIEKVGRNVRDGIIKAGPAVAVVGQAATVVK-NH2 [Papiliocin-5A] ... 1.00
RAKIFKKIEKVGRNVRDGIIKA-NH2 [PapN-2A] ... 4.00
RWKIFKKIEKVGRNVRDGIIKAGPAVAVVGQAATVVK-NH2 [Papiliocin] ... 1.00

Here's the next entry for you.
// Input: RAKIFKKIEKVGRNVRDGIIKAGPAVAVVGQAATVVK-NH2 [Papiliocin-2A] . Output its MIC, MDRPA 2095(R) only.
1.00

These entries and their values trace back to paper PMC4496781.
